System: UO-31 renal
EXPERIMENTAL PROTOCOL: NCI-60 one-dose screen, 48 h (100 = growth as untreated, 0 = no growth, -100 = all killed)
REPORTED CONDITIONS: 10 µM unless noted
The panel holds about 83,000 compounds, 20% with a hit somewhere; the sample as a whole holds those more often.
ASSAY READOUT: growth (%)
Answers are plain numbers, in %.

Sample records with growth:
| COMPOUND | UNIT STRING | growth |
| --- | --- | --- |
| Cc1ccc(C(=O)NN)cc1 | % | 104 |
| O=C1Nc2c(c(=O)n(-c3ccccc3)c3ccccc23)C(c2ccc(Cl)cc2)N1 (stereo not drawn) | % | 80.5 |

Next, consider the following compound.
Can you look up the measured growth of CCOC1=C(Cl)C(=O)C(OCC)=C(Cl)C1=O for me?
83.8
